Value source: patent US9133163B2

Catalogue of molecules with associated EC50
target-under-test: hGPR40 (Homo sapiens, UniProt O14842)
Sequence (O14842 whole entry): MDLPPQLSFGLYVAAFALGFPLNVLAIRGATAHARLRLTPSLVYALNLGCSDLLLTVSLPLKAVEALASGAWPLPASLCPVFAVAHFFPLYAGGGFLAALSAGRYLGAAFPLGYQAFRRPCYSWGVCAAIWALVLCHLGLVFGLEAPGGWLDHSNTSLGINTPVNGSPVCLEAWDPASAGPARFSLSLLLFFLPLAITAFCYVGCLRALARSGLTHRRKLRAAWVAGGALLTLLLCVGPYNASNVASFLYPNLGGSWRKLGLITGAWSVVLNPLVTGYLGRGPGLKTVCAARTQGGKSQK
assay-info: GPR40 IP-One HTRF assay in HEK293/GPR40 inducible cell lines
Assay type: cell-based
Set-up: expressed in transfected cells
run-parameters: HEK293 cells with tetracycline-inducible human GPR40; read-out: hGPR40 IP1 EC50
Quick note: number first, unit second.

Examples with answers:
molecule="CC(C)Oc1ccc(F)c(N2CCC(Oc3ccc(N4N=C(C(F)(F)F)[C@@H](C)[C@@H]4CC(=O)O)cc3)C(C)C2)c1 (stereo partly shown)" endpoint_label=EC50 observed_value="253 nM"
molecule=Cc1ccc(F)c(N2CCC(Oc3ccc(N4N=C(C(F)(F)F)[C@@H](C)[C@@H]4CC(=O)O)cc3)CC2)c1 endpoint_label=EC50 observed_value="86 nM"
molecule=COc1ccc(F)c(N2CCC(Oc3ccc(N4N=C(C(F)(F)F)[C@@H](C)[C@@H]4CC(=O)O)cc3)CC2)c1 endpoint_label=EC50 observed_value="17 nM"

--- query ---
Input: Kindly state the measured EC50 obtained for CCOc1ccc(F)c(N2CCC(Oc3ccc(N4N=C(c5ccc(C#N)cc5)[C@@H](C)[C@@H]4CC(=O)O)cc3)CC2)c1 with hGPR40 (Homo sapiens, UniProt O14842).
Output: 7 nM

###

target-under-test: hGPR40 (Homo sapiens, UniProt O14842)
assay-info: FDSS-based intracellular calcium assay
Format: cell-based
Set-up: 3xFLAG; expressed in transfected cells
run-parameters: intracellular Ca2+ response, cells expressing GPR40
Protocol: FDSS-Based Intracellular Calcium Assay Compounds are dissolved in DMSO and diluted to desired concentrations with assay buffer and added to the cells as 3× solution (20 μL per well). Run fluorescence/luminescence reader FDSS (Hamamatsu) to read intracellular Ca^2+ response.
Catalogue of molecules with associated EC50
Respond numerically; units are nM and should not be typed.

Examples with answers:
molecule=CCOc1ccc(F)c(N2CCC(Oc3ccc(N4N=C(c5ccc(C#N)cc5)[C@@H](C)[C@@H]4CC(=O)O)cc3)CC2)c1 unit_abbrev=nM observed_value=82
molecule=COc1cc(C)c(N2CCC(Oc3ccc(N4N=C(C(F)(F)F)[C@@H](C)[C@@H]4CC(=O)O)cc3)CC2)c(C)c1 unit_abbrev=nM observed_value=3060

--- query ---
Input: I would be grateful if you could share the reported EC50 for CCOc1cc(F)c(F)c(N2CCC(Oc3ccc(N4N=C(C(F)(F)F)[C@@H](C)[C@@H]4CC(=O)O)cc3)C(C)C2)c1 (single isomer, unassigned) [Example 10 (Isomer 2)] .
Output: 315

###

Catalogue of molecules with associated EC50
target-under-test: hGPR40 (Homo sapiens, UniProt O14842)
assay-info: FDSS-based intracellular calcium assay
Format: cell-based
Design: 3xFLAG; expressed in transfected cells
run-parameters: intracellular Ca2+ response, cells expressing GPR40
Respond numerically; units are nM and should not be typed.

molecule=CCOc1ccc(F)c(N2CC[C@@H](Oc3ccc(N4N=C(c5ccc(C#N)cc5)[C@@H](CC)[C@@H]4CC(=O)O)cc3)[C@H](C)C2)c1 unit_abbrev=nM observed_value=25

Input: I would be grateful if you could share the reported EC50 for COc1cc(N2CC[C@H](Oc3ccc(N4N=C(C(F)(F)F)[C@@H](C)[C@@H]4CC(=O)O)cc3)[C@@H](C)C2)c(Cl)cn1 [Example 81, Isomer 1] .
Output: 319

Input: I would be grateful if you could share the reported EC50 for COc1ccc(F)c(N2CCC(Oc3ccc(N4N=C(c5ccc(C#N)cc5)[C@@H](C)[C@@H]4CC(=O)O)cc3)CC2)c1 .
Output: 62
